Consider the following compounds; for each one, report its BAF3-FGFR4 pIC50.
MEASURED_ON: Ba/F3-FGFR4-transfected cells (Homo sapiens, UniProt P22455)
Sequence (P22455 whole entry, change not shown): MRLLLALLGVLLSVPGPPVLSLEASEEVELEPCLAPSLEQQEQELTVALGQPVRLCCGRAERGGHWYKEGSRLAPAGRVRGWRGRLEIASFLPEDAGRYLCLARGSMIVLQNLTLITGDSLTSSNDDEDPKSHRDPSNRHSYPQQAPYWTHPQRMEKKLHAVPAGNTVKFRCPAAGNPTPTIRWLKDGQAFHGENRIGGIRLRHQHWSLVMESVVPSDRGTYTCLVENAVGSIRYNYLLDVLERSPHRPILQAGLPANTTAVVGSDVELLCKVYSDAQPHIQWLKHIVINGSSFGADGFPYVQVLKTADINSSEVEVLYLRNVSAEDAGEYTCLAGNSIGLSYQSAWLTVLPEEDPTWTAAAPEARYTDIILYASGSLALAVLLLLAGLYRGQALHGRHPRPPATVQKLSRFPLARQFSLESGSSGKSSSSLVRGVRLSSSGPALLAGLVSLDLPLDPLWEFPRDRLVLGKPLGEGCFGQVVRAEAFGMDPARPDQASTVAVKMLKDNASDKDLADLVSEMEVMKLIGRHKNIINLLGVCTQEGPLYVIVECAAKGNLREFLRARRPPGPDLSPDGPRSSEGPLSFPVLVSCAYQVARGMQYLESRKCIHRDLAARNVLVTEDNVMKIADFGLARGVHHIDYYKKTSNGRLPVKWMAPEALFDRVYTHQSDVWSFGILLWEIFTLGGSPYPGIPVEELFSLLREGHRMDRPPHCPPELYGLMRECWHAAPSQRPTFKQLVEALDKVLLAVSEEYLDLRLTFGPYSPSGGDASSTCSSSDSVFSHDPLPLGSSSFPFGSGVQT
PROCEDURE_TEXT: Ba/F3-FGFR4 cellular proliferation assay, Alamar Blue
Type: cell-based
Could you respond with only the numeric value?

Record summary for COc1cc(OC)c(F)c(N(Cc2ncc[nH]2)c2ccc3ncc(-c4cnn(Cc5ncc[nH]5)c4)nc3n2)c1 [Compound 100] : reported BAF3-FGFR4 pIC50 = 6.99

Record summary for COc1cc(OC)c(F)c(N(Cc2nc3ccccc3[nH]2)c2ccc3ncc(-c4cnn(C)c4)nc3n2)c1 [Compound 80] : reported BAF3-FGFR4 pIC50 = 7.36

Record summary for COc1cc(OC)c(F)c(N(CC(O)COC(C)C)c2ccc3ncc(-c4cnn(C)c4)nc3n2)c1 (single isomer, unassigned) [Compound 75] : reported BAF3-FGFR4 pIC50 = 7.33

Record summary for COc1cc(OC)c(Cl)c(N(Cc2ncc[nH]2)c2ccc3ncc(-c4cnn(C)c4)nc3n2)c1Cl [Compound 98] : reported BAF3-FGFR4 pIC50 = 6.56

Record summary for COc1cc(/N=c2\ccc3ncc(-c4cnn(C)c4)nc3n2CC2CC(O)C(=O)N2)c(F)c(OC)c1 (stereo not drawn) [Compound 270] : reported BAF3-FGFR4 pIC50 = 6.40

Record summary for COc1ccc(F)c(N(Cc2ncc[nH]2)c2ccc3ncc(-c4cnn(C)c4)nc3n2)c1Cl [Compound 73] : reported BAF3-FGFR4 pIC50 = 6.50

Record summary for COc1cc(OC)cc(N(CCS(C)(=O)=O)c2ccc3ncc(-c4cnn(CCS(C)(=O)=O)c4)nc3n2)c1 [Compound 275] : reported BAF3-FGFR4 pIC50 = 5.13

Record summary for COc1cc(OC)c(F)c(N(Cc2ncc[nH]2)c2ccc3ncc(-c4cnn(C5COC5)c4)nc3n2)c1 [Compound 253] : reported BAF3-FGFR4 pIC50 = 7.90

Record summary for COc1cc(OC)c(F)c(N(Cc2ncc[nH]2)c2ccc3ncc(N4CCOCC4)nc3n2)c1F [Compound 215] : reported BAF3-FGFR4 pIC50 = 7.54

Record summary for COc1cc(OC)c(F)c(N(CC2CCC(=O)N2)c2ccc3ncc(-c4cnn(C)c4)nc3n2)c1 (stereo not drawn) [Compound 52] : reported BAF3-FGFR4 pIC50 = 6.55

Record summary for COc1cc(OC)c(F)c(N(CC2COC2)c2ccc3ncc(-c4cnn(C)c4)nc3n2)c1 [Compound 144] : reported BAF3-FGFR4 pIC50 = 6.13

Record summary for CCOCc1c[nH]c(CN(c2ccc3ncc(-c4cnn(C)c4)nc3n2)c2cc(OC)cc(OC)c2F)n1 [Compound 206] : reported BAF3-FGFR4 pIC50 = 7.34

Record summary for COc1cc(OC)c(F)c(/N=c2\ccc3ncc(-c4cnn(C)c4)nc3n2C)c1F (single isomer, unassigned) [Compound 255] : reported BAF3-FGFR4 pIC50 = 7.34

Record summary for COc1cc(OC)c(F)c(N(CC2CCC(=O)N2)c2ccc3ncc(-c4cnn(C)c4)nc3n2)c1 (stereo not drawn) [Compound 46] : reported BAF3-FGFR4 pIC50 = 6.76

* * *

MEASURED_ON: Ba/F3-KDR-transfected cells (Homo sapiens)
Construct: BAF3-KDR (MIN IL3) pIC50; other: minus IL3
Sequence (P35968 whole entry, change not shown): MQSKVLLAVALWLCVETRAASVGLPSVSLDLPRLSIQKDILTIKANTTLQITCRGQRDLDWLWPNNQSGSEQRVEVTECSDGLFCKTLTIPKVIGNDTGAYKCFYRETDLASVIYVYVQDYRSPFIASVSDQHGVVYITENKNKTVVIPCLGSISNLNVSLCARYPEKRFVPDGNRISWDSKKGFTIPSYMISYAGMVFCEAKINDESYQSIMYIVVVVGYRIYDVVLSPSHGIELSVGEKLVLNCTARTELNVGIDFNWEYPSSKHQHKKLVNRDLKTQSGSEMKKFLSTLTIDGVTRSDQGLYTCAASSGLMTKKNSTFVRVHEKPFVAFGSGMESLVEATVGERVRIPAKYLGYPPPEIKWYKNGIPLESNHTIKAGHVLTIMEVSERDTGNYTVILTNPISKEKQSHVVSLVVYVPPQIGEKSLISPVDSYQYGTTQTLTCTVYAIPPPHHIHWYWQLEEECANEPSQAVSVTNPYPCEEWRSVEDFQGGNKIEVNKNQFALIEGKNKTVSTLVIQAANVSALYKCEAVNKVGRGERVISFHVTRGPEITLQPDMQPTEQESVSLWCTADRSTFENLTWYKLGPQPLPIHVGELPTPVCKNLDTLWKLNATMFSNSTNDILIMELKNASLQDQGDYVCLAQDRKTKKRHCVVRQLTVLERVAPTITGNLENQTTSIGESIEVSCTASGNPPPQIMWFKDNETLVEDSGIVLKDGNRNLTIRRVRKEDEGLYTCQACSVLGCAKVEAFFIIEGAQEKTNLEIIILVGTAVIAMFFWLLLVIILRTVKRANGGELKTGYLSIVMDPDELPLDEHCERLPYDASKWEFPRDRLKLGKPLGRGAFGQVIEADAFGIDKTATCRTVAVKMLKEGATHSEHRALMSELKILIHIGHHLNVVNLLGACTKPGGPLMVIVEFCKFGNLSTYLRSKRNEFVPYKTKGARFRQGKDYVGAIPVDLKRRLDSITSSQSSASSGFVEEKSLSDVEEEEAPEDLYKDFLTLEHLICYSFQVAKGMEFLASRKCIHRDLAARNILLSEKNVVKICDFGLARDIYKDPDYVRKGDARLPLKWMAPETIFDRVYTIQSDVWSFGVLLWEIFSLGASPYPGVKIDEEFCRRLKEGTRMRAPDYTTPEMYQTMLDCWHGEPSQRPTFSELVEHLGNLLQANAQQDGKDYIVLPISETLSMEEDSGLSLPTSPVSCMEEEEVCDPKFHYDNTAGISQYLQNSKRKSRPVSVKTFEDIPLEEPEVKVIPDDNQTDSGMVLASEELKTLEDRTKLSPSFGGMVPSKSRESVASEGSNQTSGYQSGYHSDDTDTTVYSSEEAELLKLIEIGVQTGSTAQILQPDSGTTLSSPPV
PROCEDURE_TEXT: Ba/F3-KDR (minus IL3) cellular proliferation assay, Alamar Blue
Assay type: cell-based
PROPERTY: BAF3-KDR (MIN IL3) pIC50
Could you respond with only the numeric value?

Record summary for CNCCN(c1ccc2ncc(-c3cnn(C)c3)nc2n1)c1c(F)ccc(OC)c1Cl : reported BAF3-KDR (MIN IL3) pIC50 = 5.13

Record summary for COc1cc(OC)c(F)c(N(CCO)c2ccc3ncc(-c4cnn(C)c4)nc3n2)c1F : reported BAF3-KDR (MIN IL3) pIC50 = 6.53

Record summary for COc1cc(OC)c(F)c(N(CCNC(C)=O)c2ccc3ncc(-c4cnn(C)c4)nc3n2)c1 : reported BAF3-KDR (MIN IL3) pIC50 = 5.49

Record summary for COc1cc(/N=c2\ccc3ncc(-c4cnn(CC(C)(C)O)c4)nc3n2CC2CCC(=O)N2)c(F)c(OC)c1 (stereo not shown) : reported BAF3-KDR (MIN IL3) pIC50 = 6.23

* * *

Consider the following compounds; for each one, report its IC50.
MEASURED_ON: KDR (h) (Homo sapiens, UniProt P35968)
Sequence (P35968 20-1356): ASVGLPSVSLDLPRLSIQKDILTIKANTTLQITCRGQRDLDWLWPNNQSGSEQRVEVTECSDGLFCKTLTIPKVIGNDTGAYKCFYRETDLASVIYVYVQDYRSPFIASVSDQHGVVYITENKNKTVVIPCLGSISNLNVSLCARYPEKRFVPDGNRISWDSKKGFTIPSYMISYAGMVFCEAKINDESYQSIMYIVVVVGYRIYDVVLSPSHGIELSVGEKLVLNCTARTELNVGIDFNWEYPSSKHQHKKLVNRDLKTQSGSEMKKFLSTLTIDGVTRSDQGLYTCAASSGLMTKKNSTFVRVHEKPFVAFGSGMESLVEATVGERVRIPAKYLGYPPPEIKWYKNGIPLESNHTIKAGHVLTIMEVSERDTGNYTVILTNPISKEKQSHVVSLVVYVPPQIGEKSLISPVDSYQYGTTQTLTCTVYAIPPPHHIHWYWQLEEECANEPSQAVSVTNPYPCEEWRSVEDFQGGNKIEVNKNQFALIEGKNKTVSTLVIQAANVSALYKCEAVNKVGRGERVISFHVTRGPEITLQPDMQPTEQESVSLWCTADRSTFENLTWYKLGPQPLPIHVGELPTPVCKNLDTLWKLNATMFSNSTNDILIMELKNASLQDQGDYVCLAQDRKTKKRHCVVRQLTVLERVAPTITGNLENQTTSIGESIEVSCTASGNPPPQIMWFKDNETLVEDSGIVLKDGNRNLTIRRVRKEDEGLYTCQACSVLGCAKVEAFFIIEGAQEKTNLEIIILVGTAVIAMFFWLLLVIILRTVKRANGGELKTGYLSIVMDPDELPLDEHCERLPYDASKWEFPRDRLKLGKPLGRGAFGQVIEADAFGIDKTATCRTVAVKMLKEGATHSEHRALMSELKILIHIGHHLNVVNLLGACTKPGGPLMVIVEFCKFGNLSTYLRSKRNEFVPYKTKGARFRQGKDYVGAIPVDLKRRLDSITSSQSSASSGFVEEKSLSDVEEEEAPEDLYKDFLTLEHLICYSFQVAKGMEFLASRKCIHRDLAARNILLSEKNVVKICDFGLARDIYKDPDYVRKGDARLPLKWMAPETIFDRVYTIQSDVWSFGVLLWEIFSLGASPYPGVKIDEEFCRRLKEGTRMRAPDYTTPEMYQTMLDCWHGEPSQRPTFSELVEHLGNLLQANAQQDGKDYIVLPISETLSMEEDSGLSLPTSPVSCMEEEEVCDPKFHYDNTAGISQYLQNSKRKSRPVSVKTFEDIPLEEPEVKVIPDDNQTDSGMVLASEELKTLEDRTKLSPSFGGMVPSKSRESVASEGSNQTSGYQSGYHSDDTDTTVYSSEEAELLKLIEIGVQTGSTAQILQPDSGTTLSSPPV
PROCEDURE_TEXT: KDR (VEGFR2) (enzymatic assay), TR-FRET
Assay type: biochemical
ASSAY_SETUP: average values if tested multiple times, read-out: VEGFR 2 (KDR) pIC50 (converted)
Structures can show the parent of a compound that is named as a salt.
I only need the number, in µM, no unit after it.

Record summary for COc1cc(OC)cc(N(CCO)c2ccc3ncc(-c4cnn(C)c4)nc3n2)c1 : reported IC50 = 0.0631

Record summary for COc1cc(/N=c2\ccc3ncc(-c4cnn(C)c4)nc3n2CC2COC(=O)N2)c(F)c(OC)c1 (single isomer, unassigned) : reported IC50 = 0.017

Record summary for COc1cc(OC)cc(N(CC(O)C(F)(F)F)c2ccc3ncc(-c4cnn(C)c4)nc3n2)c1 (stereo not drawn) [Compound 8] : reported IC50 = 0.126

Record summary for COc1cc(OC)c(F)c(N(CCN)c2ccc3ncc(-c4cnn(C)c4)nc3n2)c1F : reported IC50 = 0.0145

Record summary for COCC(O)Cn1c(=Nc2c(F)c(OC)cc(OC)c2F)ccc2ncc(-c3cnn(C)c3)nc21 (stereo not drawn) : reported IC50 = 0.00776

Record summary for COc1cc(OC)c(F)c(N(Cc2c[nH]cn2)c2ccc3ncc(-c4cnn(C)c4)nc3n2)c1 : reported IC50 = 0.00537

Record summary for COc1cc(/N=c2\ccc3ncc(-c4cnn(C)c4)nc3n2Cc2cc[nH]n2)c(F)c(OC)c1 : reported IC50 = 0.00589

Record summary for COc1cc(/N=c2\ccc3ncc(-c4cnn(C)c4)nc3n2CC2CCC(=O)N2)c(F)c(OC)c1 (stereo not drawn) [Compound 53] : reported IC50 = 0.0123

Record summary for COc1cc(/N=c2\ccc3ncc(-c4cnn(C)c4)nc3n2CC(O)COC(C)C)c(F)c(OC)c1 (single isomer, unassigned) : reported IC50 = 0.0288

Record summary for COc1cc(OC)cc(N(Cc2ncccn2)c2ccc3ncc(-c4cnn(C)c4)nc3n2)c1 : reported IC50 = 0.0398

Record summary for COc1ccc(Cl)c(N(Cc2ncc[nH]2)c2ccc3ncc(-c4cnn(C)c4)nc3n2)c1Cl : reported IC50 = 0.191

Record summary for COc1cc(OC)c(F)c(N(Cc2ncccn2)c2ccc3ncc(-c4cnn(C)c4)nc3n2)c1 : reported IC50 = 0.0501

Record summary for COc1cc(OC)c(F)c(N(CC(O)COC(C)C)c2ccc3ncc(-c4cnn(C)c4)nc3n2)c1F (stereo not drawn) [Compound 61] : reported IC50 = 0.0166

Record summary for COc1cc(OC)c(F)c(N(CC(O)COC(C)C)c2ccc3ncc(-c4cnn(C)c4)nc3n2)c1 (single isomer, unassigned) [Compound 75] : reported IC50 = 0.0234

Record summary for COc1cc(OC)c(F)c(N(CCNC(C)C)c2ccc3ncc(-c4cnn(C)c4)nc3n2)c1F : reported IC50 = 0.0794

Record summary for CNCCN(c1ccc2ncc(-c3cnn(C)c3)nc2n1)c1c(Cl)c(OC)cc(OC)c1Cl : reported IC50 = 0.195

Record summary for COc1cc(O)cc(N(Cc2ncc[nH]2)c2ccc3ncc(-c4cnn(C)c4)nc3n2)c1 : reported IC50 = 0.00537

Record summary for COc1cc(OC)c(F)c(N(Cc2nc[nH]n2)c2ccc3ncc(-c4cnn(C)c4)nc3n2)c1 : reported IC50 = 0.00759

Record summary for COc1cc(OC)c(F)c(N(CCNC(C)C)c2ccc3ncc(-c4cnn(C)c4)nc3n2)c1 : reported IC50 = 0.0794

Record summary for COc1cc(OC)c(F)c(N(Cc2ncc[nH]2)c2ccc3ncc(-c4cnn(C)c4)nc3n2)c1 [23-lactate salt] : reported IC50 = 0.00661

Record summary for COc1cc(OC)c(F)c(N(CC(O)COC(C)C)c2ccc3ncc(-c4cnn(C)c4)nc3n2)c1 (single isomer, unassigned) [Compound 78] : reported IC50 = 0.0151

Record summary for COc1cc(/N=c2\ccc3ncc(-c4cnn(C)c4)nc3n2CCCO)cc(OC)c1 : reported IC50 = 0.00501

Record summary for COc1cc(OC)cc(N(Cc2ncc[nH]2)c2ccc3ncc(-c4cnn(C)c4)nc3n2)c1 [Compound 24] : reported IC50 = 0.0107

Record summary for COc1ccc(F)c(N(Cc2ncc[nH]2)c2ccc3ncc(-c4cnn(C)c4)nc3n2)c1Cl : reported IC50 = 0.0631

Record summary for COc1cc(/N=c2\ccc3ncc(-c4cnn(C)c4)nc3n2CCNC(C)C)c(F)c(OC)c1 : reported IC50 = 0.0457

Record summary for COc1cc(OC)c(F)c(N(Cc2ncc[nH]2)c2ccc3ncc(-c4cnn(C)c4)nc3n2)c1F : reported IC50 = 0.0794

Record summary for COc1cc(OC)c(F)c(N(Cc2ncccn2)c2ccc3ncc(-c4cnn(C)c4)nc3n2)c1F : reported IC50 = 0.398

Provenance of the data: patent US9309242B2
